Tested on: NCI/ADR-RES ovarian
Experiment: NCI tumour cell line growth inhibition, 48 h

Molecule	Censor symbol	TGI / µM
CN(C)CCC=C1c2ccccc2C=Cc2ccccc21	=	31.2
CC(C)=C1C(=O)C[C@@]2(C)C[C@H]3OC3(C)CC/C=C(/C)CCC12 (some centres undefined)	=	95
COC1CC(OC2C(C)OC(OC3C(C)OC(OC4C(C)OC(O[C@H]5CC[C@@]6(C)C(=CC[C@]7(O)[C@@H]6C[C@@H](OC(=O)/C=C(\C)C(C)C)[C@@]6(C)[C@]7(O)CC[C@@]6(O)C(C)=O)C5)CC4OC)CC3OC)CC2OC)OC(C)C1O (some centres undefined)	>	12.5
N#C/C(=C\c1ccccc1)c1nc(-c2cc3ccccc3oc2=O)cs1	>	100
COc1ccc(SCc2cc(OC)c(OC)c(OC)c2)cc1OC	>	100
CCN(CC)C(=S)N/N=C(\C)c1cccc(C)n1	=	13.5
CCc1ccc(CNCC(O)c2ccccc2)cc1 (centres undefined)	=	71.2
COc1cc(C2SC(N)=Nc3c2c(C)nn3C(=O)c2ccc(Cl)cc2)cc(OC)c1OC (centres undefined)	>	10
COc1cc(C(=O)NC(CCN)(c2ccccc2)c2ccccc2)cc(OC)c1OC	>	100
